- targetDesc: Histone deacetylase 1 (Homo sapiens, UniProt Q13547)
- Sequence (Q13547 whole entry, the tested form may be a part): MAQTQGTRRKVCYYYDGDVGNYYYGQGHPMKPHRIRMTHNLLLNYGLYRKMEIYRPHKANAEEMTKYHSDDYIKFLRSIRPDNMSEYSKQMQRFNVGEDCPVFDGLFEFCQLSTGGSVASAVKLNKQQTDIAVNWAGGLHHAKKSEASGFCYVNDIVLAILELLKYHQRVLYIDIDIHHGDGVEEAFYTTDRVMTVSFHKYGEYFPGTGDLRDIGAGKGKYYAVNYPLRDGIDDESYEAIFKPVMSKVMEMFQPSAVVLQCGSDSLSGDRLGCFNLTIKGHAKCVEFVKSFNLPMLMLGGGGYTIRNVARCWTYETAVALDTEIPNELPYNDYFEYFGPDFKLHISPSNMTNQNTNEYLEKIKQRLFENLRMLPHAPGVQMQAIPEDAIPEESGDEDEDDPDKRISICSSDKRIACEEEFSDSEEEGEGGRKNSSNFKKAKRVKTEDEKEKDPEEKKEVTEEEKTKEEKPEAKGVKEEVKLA
- protocol: Inhibition of recombinant full length C-terminal His/Flag-tagged human HDAC1 (1 to 482 residues) using Z-Lys(Ac)-AMC as substrate preincubated for 90 mins followed by trypsin addition and measured after 30 mins by fluorescence based microplate reader analysis
metricName: pIC50
Reminder that pIC50 is minus the log10 of a molar concentration.

Record for O=C(CCCCCCNC(=O)c1ccc(NC(=O)CCOCCOCCOCCNC(=O)COc2cccc3c2C(=O)N(C2CCC(=O)NC2=O)C3=O)cc1)NO (stereo not drawn) under target or system Histone deacetylase 1 (Homo sapiens, UniProt Q13547): pIC50 reported as 6.79

// pIC50 (Histone deacetylase 1 (Homo sapiens, UniProt Q13547)) for O=C(CCCCCCNC(=O)c1ccc(NC(=O)CCOCCOCCOCCOCCNC(=O)COc2cccc3c2C(=O)N(C2CCC(=O)NC2=O)C3=O)cc1)NO (stereo not drawn) = 6.68

Measured pIC50 for this entry Cc1nc2cc(NC(=O)CCOCCOCCOCCNC(=O)COc3cccc4c3C(=O)N(C3CCC(=O)NC3=O)C4=O)ccc2n1Cc1ccc(C(=O)NO)cc1F (stereo not drawn) on Histone deacetylase 1 (Homo sapiens, UniProt Q13547): 5.88

Reported pIC50 (Histone deacetylase 1 (Homo sapiens, UniProt Q13547)) for entry Cc1nc2cc(NC(=O)CCOCCOCCOCCOCCNC(=O)CNc3cccc4c3C(=O)N(C3CCC(=O)NC3=O)C4=O)ccc2n1Cc1ccc(C(=O)NO)cc1F (stereo not drawn) is 5.85

For Cc1nc2cc(NC(=O)CCOCCOCCOCCOCCNC(=O)COc3cccc4c3C(=O)N(C3CCC(=O)NC3=O)C4=O)ccc2n1Cc1ccc(C(=O)NO)cc1F (stereo not drawn) on Histone deacetylase 1 (Homo sapiens, UniProt Q13547), measured pIC50 was 5.83

Lab entry: Histone deacetylase 1 (Homo sapiens, UniProt Q13547) assay, molecule O=C(CCCCCCNC(=O)c1ccc(NC(=O)CCOCCOCCOCCOCCNC(=O)CNc2cccc3c2C(=O)N(C2CCC(=O)NC2=O)C3=O)cc1)NO (stereo not drawn) , pIC50 = 6.73

Recorded pIC50 for Cc1nc2cc(NC(=O)CCCCCCCNC(=O)COc3cccc4c3C(=O)N(C3CCC(=O)NC3=O)C4=O)ccc2n1Cc1ccc(C(=O)NO)cc1F (stereo not drawn) on Histone deacetylase 1 (Homo sapiens, UniProt Q13547) was 6.19

// molecule O=C(CCCCCCNC(=O)c1ccc(NC(=O)COCCNC(=O)COc2cccc3c2C(=O)N(C2CCC(=O)NC2=O)C3=O)cc1)NO (stereo not drawn) , assay Histone deacetylase 1 (Homo sapiens, UniProt Q13547), pIC50 value: 6.81

---

- targetDesc: Protein deacetylase HDAC6 (Homo sapiens, UniProt Q9UBN7)
- Sequence (Q9UBN7 whole entry, the tested form may be a part): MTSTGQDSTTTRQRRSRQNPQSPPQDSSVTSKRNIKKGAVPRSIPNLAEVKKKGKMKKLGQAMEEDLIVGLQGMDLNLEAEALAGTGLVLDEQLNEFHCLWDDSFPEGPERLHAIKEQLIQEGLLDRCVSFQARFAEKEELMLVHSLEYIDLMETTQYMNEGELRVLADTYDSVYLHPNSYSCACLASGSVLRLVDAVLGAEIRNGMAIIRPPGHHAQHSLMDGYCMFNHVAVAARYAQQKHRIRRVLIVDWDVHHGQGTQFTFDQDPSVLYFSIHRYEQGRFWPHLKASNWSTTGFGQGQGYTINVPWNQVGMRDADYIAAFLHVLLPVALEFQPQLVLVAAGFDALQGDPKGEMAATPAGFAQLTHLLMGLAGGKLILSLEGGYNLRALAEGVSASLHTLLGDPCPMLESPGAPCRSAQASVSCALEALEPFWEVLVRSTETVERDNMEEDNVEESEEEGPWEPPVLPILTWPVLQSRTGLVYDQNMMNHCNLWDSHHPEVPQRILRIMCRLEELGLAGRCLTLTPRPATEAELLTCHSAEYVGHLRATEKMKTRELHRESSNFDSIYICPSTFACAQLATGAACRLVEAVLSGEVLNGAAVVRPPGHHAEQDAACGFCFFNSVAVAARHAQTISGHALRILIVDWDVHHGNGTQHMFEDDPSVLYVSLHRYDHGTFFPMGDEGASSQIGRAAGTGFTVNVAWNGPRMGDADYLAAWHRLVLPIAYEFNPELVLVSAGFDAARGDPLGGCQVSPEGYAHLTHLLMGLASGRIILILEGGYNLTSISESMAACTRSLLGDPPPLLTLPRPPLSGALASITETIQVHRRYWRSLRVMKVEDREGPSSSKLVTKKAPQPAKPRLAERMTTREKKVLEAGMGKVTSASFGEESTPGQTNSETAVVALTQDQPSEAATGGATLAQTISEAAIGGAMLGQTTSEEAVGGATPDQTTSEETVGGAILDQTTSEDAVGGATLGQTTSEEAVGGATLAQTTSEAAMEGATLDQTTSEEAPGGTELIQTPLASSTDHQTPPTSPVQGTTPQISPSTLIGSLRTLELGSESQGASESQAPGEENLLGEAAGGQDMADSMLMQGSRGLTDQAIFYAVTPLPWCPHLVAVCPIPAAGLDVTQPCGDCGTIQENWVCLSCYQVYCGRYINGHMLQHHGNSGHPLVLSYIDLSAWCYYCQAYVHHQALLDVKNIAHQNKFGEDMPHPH
- protocol: Inhibition of recombinant full length N-terminal GST-tagged human HDAC6 (1 to 1215 residues) using Z-Lys(Ac)-AMC as substrate preincubated for 90 mins followed by trypsin addition and measured after 30 mins by fluorescence based microplate reader analysis
Mark each entry T if its IC50 sits below 600 nM, and F for all others.

*Q* For O=C(CCCCCCNC(=O)c1ccc(NC(=O)CCOCCOCCOCCNC(=O)COc2cccc3c2C(=O)N(C2CCC(=O)NC2=O)C3=O)cc1)NO (stereo not drawn) , is the recorded IC50 below the cut-off of 600 nM?
*A* T

*Q* IC50 strictly < 600 nM for this compound? O=C(CCCCCCNC(=O)c1ccc(NC(=O)CCOCCOCCOCCOCCNC(=O)COc2cccc3c2C(=O)N(C2CCC(=O)NC2=O)C3=O)cc1)NO (stereo not drawn)
*A* T

*Q* hey, is IC50 for Cc1nc2cc(NC(=O)CCOCCOCCOCCNC(=O)COc3cccc4c3C(=O)N(C3CCC(=O)NC3=O)C4=O)ccc2n1Cc1ccc(C(=O)NO)cc1F (stereo not drawn) lower than 600 nM or not?
*A* F

*Q* Determine whether this compound shows IC50 lower than 600 nM (ties excluded): Cc1nc2cc(NC(=O)CCCCCCCNC(=O)COc3cccc4c3C(=O)N(C3CCC(=O)NC3=O)C4=O)ccc2n1Cc1ccc(C(=O)NO)cc1F (stereo not drawn)
*A* F

*Q* Strictly below 600 nM: is that where IC50 of O=C(CCCCCCNC(=O)c1ccc(NC(=O)COCCNC(=O)COc2cccc3c2C(=O)N(C2CCC(=O)NC2=O)C3=O)cc1)NO (stereo not drawn) sits?
*A* T

*Q* Hello, is IC50 of the following compound strictly smaller than 600 nM? Cc1nc2cc(NC(=O)CCOCCOCCOCCOCCNC(=O)COc3cccc4c3C(=O)N(C3CCC(=O)NC3=O)C4=O)ccc2n1Cc1ccc(C(=O)NO)cc1F (stereo not drawn)
*A* F

*Q* For this compound, is IC50 lower than 600 nM? Cc1nc2cc(NC(=O)CCOCCOCCOCCOCCNC(=O)CNc3cccc4c3C(=O)N(C3CCC(=O)NC3=O)C4=O)ccc2n1Cc1ccc(C(=O)NO)cc1F (stereo not drawn)
*A* F

*Q* Bench note: check whether O=C(CCCCCCNC(=O)c1ccc(NC(=O)CCOCCOCCOCCOCCNC(=O)CNc2cccc3c2C(=O)N(C2CCC(=O)NC2=O)C3=O)cc1)NO (stereo not drawn) shows IC50 below 600 nM
*A* T

Hey, just so you know, these numbers are from ChEMBL document CHEMBL5150069.
